The measured values listed here are drawn from patent US20240109974A1.

# Tgt: T1, Cynomolgus TNFR2-His (Sino 90102-C08H) (cynomolgus monkey, UniProt A0A2K5VET2 132-366)
# T1 construct: Bought protein; also called cynomolgus monkey TNFR2; recombinant cynomolgus monkey TNFR2 protein; not shown: His tag
# T1 sequence: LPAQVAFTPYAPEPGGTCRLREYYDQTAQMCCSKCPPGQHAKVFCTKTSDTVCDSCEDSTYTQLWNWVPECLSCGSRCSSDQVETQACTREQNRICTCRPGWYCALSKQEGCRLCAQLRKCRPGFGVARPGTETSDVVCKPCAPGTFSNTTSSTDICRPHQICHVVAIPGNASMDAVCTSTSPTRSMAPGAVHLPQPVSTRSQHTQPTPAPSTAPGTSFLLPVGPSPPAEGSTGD
# Test Description: ELISA, cynomolgus TNFR2-His coated
Would you kindly list EC50 for each of these binders?
Give your result in ng/mL as a bare value.

## Input Recorded EC50 of 001-Hu4 (antibody, V domains shown, Humanized form of #001; also called VH2 + VL4) VH: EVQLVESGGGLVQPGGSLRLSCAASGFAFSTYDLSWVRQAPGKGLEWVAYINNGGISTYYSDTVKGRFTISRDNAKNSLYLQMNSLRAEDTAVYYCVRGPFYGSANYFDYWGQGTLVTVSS VL: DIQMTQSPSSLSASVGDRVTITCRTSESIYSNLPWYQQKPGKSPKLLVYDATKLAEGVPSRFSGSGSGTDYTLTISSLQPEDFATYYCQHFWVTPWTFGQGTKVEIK , please.
## Output 9.27

## Input Recorded EC50 of 224-Hu2 (antibody, V domains shown, Humanized form of #224; also called VH9 + VL7) VH: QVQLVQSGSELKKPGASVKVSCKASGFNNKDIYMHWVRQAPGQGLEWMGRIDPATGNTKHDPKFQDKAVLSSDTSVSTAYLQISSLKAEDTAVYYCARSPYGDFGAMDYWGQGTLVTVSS VL: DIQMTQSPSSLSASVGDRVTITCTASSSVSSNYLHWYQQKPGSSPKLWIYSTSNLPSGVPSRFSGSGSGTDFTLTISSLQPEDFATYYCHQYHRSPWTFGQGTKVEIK , please.
## Output 9.62

## Input Recorded EC50 of 001-Hu1 (antibody, V domains shown, Humanized form of #001; also called VH1 + VL1) VH: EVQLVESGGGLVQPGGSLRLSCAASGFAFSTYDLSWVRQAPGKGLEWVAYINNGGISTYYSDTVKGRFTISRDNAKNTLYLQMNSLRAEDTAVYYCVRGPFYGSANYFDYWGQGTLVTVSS VL: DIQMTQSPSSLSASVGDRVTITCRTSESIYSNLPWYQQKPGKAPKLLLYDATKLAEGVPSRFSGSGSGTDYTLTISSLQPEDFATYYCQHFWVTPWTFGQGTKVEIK , please.
## Output 9.62

## Input Recorded EC50 of 219-Hu5 (antibody, V domains shown, also called VH7 + VL5) VH: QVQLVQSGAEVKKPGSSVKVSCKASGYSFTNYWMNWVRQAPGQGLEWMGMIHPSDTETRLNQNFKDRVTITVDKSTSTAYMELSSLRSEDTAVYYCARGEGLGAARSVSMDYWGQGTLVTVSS VL: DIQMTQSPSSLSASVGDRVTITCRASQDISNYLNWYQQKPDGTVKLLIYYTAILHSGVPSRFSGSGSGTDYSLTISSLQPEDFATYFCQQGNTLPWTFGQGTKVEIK , please.
## Output 12.2

## Input Recorded EC50 of 001-Hu5 (antibody, V domains shown, Humanized form of #001; also called VH1 + VL4) VH: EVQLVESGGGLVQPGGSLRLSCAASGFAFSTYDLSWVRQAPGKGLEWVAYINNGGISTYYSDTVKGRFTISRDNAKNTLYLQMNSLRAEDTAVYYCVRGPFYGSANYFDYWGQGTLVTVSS VL: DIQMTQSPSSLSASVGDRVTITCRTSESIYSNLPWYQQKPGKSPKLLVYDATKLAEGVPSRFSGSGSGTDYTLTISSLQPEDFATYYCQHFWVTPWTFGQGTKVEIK , please.
## Output 9.88
